Reference for the values: patent US9732094B2

Target: DNA-PK phosphorylation at serine 2056 (Homo sapiens (Human), UniProt P78527)
Experiment: DNA-PK phosphorylation at serine 2056 (cellular), bleomycin-treated HCT116 cells, ELISA
Type: cell-based
Conditions: cellular; HCT116 cells, 10 μM bleomycin, six hours; read-out: IC50 pDNA-PK
Exercise: state measured IC50 for each of the molecules provided.

Recorded results for 5 molecules are shown here.
OC(c1ccc2nccn2n1)c1cc(-c2ncnc3cc(N4CCOCC4)ccc23)c(F)cc1F (single isomer, unassigned) [Example 21] = < 0.5 µM
O[C@@H](c1ccc(F)c(-c2ncnc3cc(N4CCOCC4)ccc23)c1)c1nccnc1Cl = 5 to 10 µM
Cc1nccnc1[C@H](O)c1cc(-c2ncnc3cc(N4CCOCC4)ccc23)c(F)cc1F = < 0.5 µM
OC(c1ccc(OCC(F)(F)F)nn1)c1cc(-c2ncnc3cc(N4CCOCC4)ccc23)c(F)cc1Cl (stereo not drawn) = 0.5 to 5 µM
COc1cnc(C(O)c2ccc(F)c(-c3ncnc4cc(N5CCOCC5)ccc34)c2)cn1 (stereo not drawn) [Example 60] = 0.5 to 5 µM

// batch mode: one IC50 value per listed entry
1. OCCOc1ccc(C(O)c2cc(-c3ncnc4cc(N5CCOCC5)ccc34)c(F)cc2Cl)nn1 (stereo not drawn)
2. OC(c1ccc2nccn2n1)c1cc(-c2ncnc3cc(N4CCOCC4)ccc23)c(F)cc1F (single isomer, unassigned) [Example 20]

0.5 to 5 µM
5 to 10 µM

// batch mode: one IC50 value per listed entry
1. Cc1cc(F)c(-c2ncnc3cc(N4CCOCC4)ccc23)cc1C(O)c1nccs1 (stereo not drawn) [Example 210]
2. COc1cnc(C(O)c2ccc(F)c(-c3ncnc4cc(N5CCOCC5)ccc34)c2)nc1 (stereo not drawn) [Example 67]
3. O=c1ccc(C(O)c2cc(-c3ncnc4cc(N5CCOCC5)ccc34)c(F)cc2Cl)nn1CCO (stereo not drawn)
4. Cn1nc(C(O)c2cc(-c3ncnc4cc(N5CCOCC5)ccc34)c(F)cc2Cl)ccc1=O (single isomer, unassigned) [Example 44]
5. Cc1cc(F)c(-c2ncnc3cc(N4CCOCC4)ccc23)cc1C(O)c1nccs1 (stereo not drawn) [Example 209]

["0.5 to 5 µM", "5 to 10 µM", "0.5 to 5 µM", "5 to 10 µM", "10 to 30 µM"]
